Every entry's value here was drawn from patent US20170183383A1.

Attribute: GLP-1R (EC50, nM), CRE-luciferase in HEK-293 cells
# assayed.target: human glucagon-like peptide-1 receptor (human, UniProt P43220 24-463)
# Sequence (P43220 24-463): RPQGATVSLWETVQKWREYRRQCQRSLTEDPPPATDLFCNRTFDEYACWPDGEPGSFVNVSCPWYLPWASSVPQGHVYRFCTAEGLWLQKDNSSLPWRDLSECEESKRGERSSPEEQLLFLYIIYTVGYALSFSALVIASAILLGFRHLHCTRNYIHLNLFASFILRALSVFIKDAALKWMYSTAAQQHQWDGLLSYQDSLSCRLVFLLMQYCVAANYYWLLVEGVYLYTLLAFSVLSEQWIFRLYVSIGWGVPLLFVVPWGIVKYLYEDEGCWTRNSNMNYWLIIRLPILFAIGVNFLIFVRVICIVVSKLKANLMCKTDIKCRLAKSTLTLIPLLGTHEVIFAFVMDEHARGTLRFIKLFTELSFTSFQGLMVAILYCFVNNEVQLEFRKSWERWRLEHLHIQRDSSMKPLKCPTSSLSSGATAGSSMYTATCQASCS
# assay.remarks: cell-based or functional assay
Non-standard residues stand in square brackets, D forms with d. Groups on a side chain read outwards from the residue. Primed or numbered codes have the meaning given here. No end group written: not given here. *: point of attachment. C18 diacid = O=C(O)CCCCCCCCCCCCCCCCC(=O)*; Palmitoyl = CCCCCCCCCCCCCCCC(=O)*; PEG2′ = not defined here; Aib = CC(C)(N)C(=O)O
endpoint: GLP-1R (EC50, nM), CRE-luciferase in HEK-293 cells

H[dS]QGTFTSDYSK([PEG2′-PEG2′-Glu-Palmitoyl])KLD[Aib]RRAQDFVQWLMNTGGPSSGAPPPS-NH2 [Compound 17]    0.68 nM
H[dS]QGTFTSDK([PEG2′-PEG2′-Glu-C18 diacid])SKYLD[Aib]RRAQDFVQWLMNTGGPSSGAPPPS-NH2 [Compound 8]    0.2 nM
H[Aib]QGTFTSDK([PEG2′-PEG2′-Glu-C18 diacid])SKYLD[Aib]RRAQDFVQWLLDGGPSSGAPPPS-NH2 [Compound 22]    0.06 nM
H[dS]QGTFTSDYSKYLDK([PEG2′-PEG2′-Glu-Palmitoyl])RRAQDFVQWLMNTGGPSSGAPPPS-NH2 [Compound 10]    0.35 nM
